Origin of values: the nanobody polyreactivity screen of Harvey et al. (2022)

Test: yeast display, Sf9 membrane polyspecificity reagent, FACS + sequencing; frameworks hold sequencing errors
quantity: polyreactivity (PSR sort gate)

// solved cases for polyreactivity (PSR sort gate) follow
| seqString | reportedValue |
| --- | --- |
| QVQLVESGGGLVQAGGSLRLSCAASGRTFRFYDMGWYRQAPGKERELVAAISRGGGSTYYADSVKGRFTISRDNAKNTVYLQMNSLKPEDTAVYYCAAKPYKTRSSYWGDYYWGQGTQVTVSS | high polyreactivity |
| QVQLVESGGGLVQAGGSLSLSCAASGSTFVYNAMGWYRKAPGKERELVAAISSGGSTNYADSVKGRFTISRDNAKNTVYFQMKSLKPEDNRSEYSRYVVYDYWGQGTQVTVSS | low polyreactivity |
| QVLLVESGGGLLQAGGSLRLSCAASGFTFLGYVMGWYRQAPGKEREFVADITESGGRTYYADSVKGRFTISRDNAKNTVYLQMNSLKPEDTAVYYCSGEVIFEQLNRMDYWGQGTQVTVSS | low polyreactivity |
| QVQLVDSGGGLVQAGGSLRLSCASSGRIFSEYAMGWYRQAPGKERELVAAISRRGGRTYYADSVKGRFTISRDNAKNTVYLQMNSLKPEDTAVYYCAADHGDPGGYDYWGQGTQVTVSS | high polyreactivity |

As a next step, examine the sequence that follows.
Suppose we examine the sequence QVQLVESGGGLVQAGGSLRLSCAASGRIFGVNAMGWYRPSPGKERELVADISSGGSTNYADSVKGRFTISRDNAKNTVYLQMNSLKPEDTAVYYCNARFRFRYKFPSRNSWGQGTQVTVSS ; what polyreactivity (PSR sort gate) value has been reported?
high polyreactivity

---

Experiment: yeast display, Sf9 membrane polyspecificity reagent, FACS + sequencing; frameworks hold sequencing errors

| seqString | polyreactivity (PSR sort gate) |
| --- | --- |
| QVQLVESGGGLVQAGGSLRLSCAASGRIFDNYGMGWYRQAPGKERELVAAISSGGGTYYADSVKGRFTISRDNAKNTVYLQMNSLKPEDTAVYYCAKRRVYDRSFGRYDYWGQGTQVTVSS | low polyreactivity |
| QVQRVECGGGLVLAGGSLRLSCAASGRILVFYAMGWYRQARGKVRELVATITDTGRTNYADSVKGRCTISRDNAKKTDSLQMTSQKPEDTAVYYCAKQRDYGFPWATYDYWGQGTQGTVSS | low polyreactivity |

---

Test: yeast display, Sf9 membrane polyspecificity reagent, FACS + sequencing; frameworks hold sequencing errors

| seqString | polyreactivity (PSR sort gate) |
| --- | --- |
| QVQLVESGGGLVQAGGSLRLSCAASGFTFWRNTMGWYRQEPGKERELVAGISGSGGSTYYADSVKGRFTSSRDNAKNTVYLQMNSLKPEDTAVYYCAKEPNVGTWRRWRYNYCGQGTQVTVSS | high polyreactivity |
| QVQLVESVGGLVQAGGSLRLSCSDSGSTFKSYAMGWYRQSPGKERELVAAITHRGSTYYADSVKGRFTISRDNAKNTVYVQMNSLKPEDTAVYYCNVRRIGNGRRVDYCGQGTQVTVSS | high polyreactivity |

---

Assay: yeast display, Sf9 membrane polyspecificity reagent, FACS + sequencing; frameworks hold sequencing errors
quantity: polyreactivity (PSR sort gate)

Sample answers from the record:
| seqString | polyreactivity (PSR sort gate) |
| --- | --- |
| QVQLVESGGGLVQPGGSLRLSCAASGSNFEPYAMGWYRQAPGKERELVAAISSGGSTNYADSVKGRFTISRDNAKNTVYLQMNSLKPEDTAVYFCAAAYYTVGWLFYDYWYPFAYYYWGQGTQVTVSS | low polyreactivity |
| QVQLVESVGGLVQAGGSLRLSCAASGGIFWVYAMGWYRQAPGKERELVADISIADSTNYADSVKGRFTISRDNAKNTVYLQMNSLKPEDTAVYYCNAVPSQHDEFDYWGQGTQVTVSS | low polyreactivity |
| QVQLVESGGGLVQAGGSLRLSCAASGTIFGEYAMGWYRQAPAKERELVADITTGGNTNYADSVKGRFTISRDNAKNTVYLQMNSLTPEATAVYYCAADFFSRDWGQGTQVTVSS | low polyreactivity |
| QVQLVESGGGLVQAGGSLRLSCAASGRIFQLYTMGWYRQAPGKERELVAAITSGTSTSYADSVKGRFTISRDNAKNTVYLQMNSLKPEDTAVYYCNKGSVSYSSVFVPYESDYWGQGTQVTVSS | low polyreactivity |
| QVQLVESGGGLVQAGGSLRLSCAAPGSTIRANAMGWYRQAPGKEMELVAAITKNGGSTYYADSVKGRFTISRDNAKNTVYLQMNSLKPEDTAVYYCAARRSSRRPPYYYWGQGTQVTVSS | high polyreactivity |
| QVQLVESWGGLVQAGGSLRLSCAASGLILFAYTMGWYRQAPGKERELVAGIDGSGGTTYYADSVKGRFTISRDNAKNTVYLQMNSLNPEDTAVYYCAASGFRWQGVKRMDYWGQGTQVTVSS | low polyreactivity |
| QVQLVESGGGLVQAGGSLRLSCAASGRTFVSYAMGWYRQAPGKERELVAAISGSGGSTYYADSVKGRFTISPDNAKKTGYLQMNSLKPEDTAVYYCHKGRPRKVNSEGFGYWGQGTQVTVSS | high polyreactivity |
| PVQLVESGGGLVQAGGSLRLSCAASGRTVWNTMGWDRQSPGNERELVAAISYSGGTTYYADSVKGRFTISRDNAKNTVYLQMNSLKPEDTAVYYCNAVTYGWTAYYKGKRYDYWGQGTQVTVSS | high polyreactivity |

Value lookup for polyreactivity (PSR sort gate); key = QVQLVESGGGLVQAGGSLRLICAASGRTIRYYAMGWYRQAPGKERELVAAITQNGGRTYYADSVKGRFTISRDNAKNTVYLQMNSLKPEDTAVYYCAKAFIQPGDKYDSWGQGTQVTVSS
high polyreactivity

Any idea what its polyreactivity (PSR sort gate) is? The sequence is QVQLVESGGGLLQAGGSLRLSCAASGFIFGGNAMGWYREAPGKERELVAAIRSGGSTYYADSVKVRFTISRDNAKNTVYLQMISLKPLDTAVDYCAVRLRYAYRARGNYWGQGTQVTVSS
low polyreactivity

// returns reported polyreactivity (PSR sort gate) for input QVQLVESGGGLVQAGGSLRLSCAASGSTFGRYAMGWYRQAPGKEREFVAGITGRGGSTYYADSVKGRFTISRDNAKNTVYLQMNSLKPEDTAVYYCAAGYRVGYLRAGDYWGQGTQVTVSS
high polyreactivity

---

Assay: yeast display, Sf9 membrane polyspecificity reagent, FACS + sequencing; frameworks hold sequencing errors

| seqString | polyreactivity (PSR sort gate) |
| --- | --- |
| QVQLVESGGGLVQAGGSLRLSCAASGRIFTGYAMGWYRQAPGKERELVASITWRGGSTSYADSVKGRFTISRDNAKNTVYLQMNSLKPEDTAVYYCAAQKWYYPYYWGQGTQVTVSS | high polyreactivity |
| QVQLVESGGGLVQAGGSLRLSCAASGRIFRGYAMGWYRQAPGKEREFVADITRSGGSTYYADSVKGRFTISRDNAKNTVYLQMNSLKPEDTAVYYCAREWYQYSPYHRFDYWGQGTQVTVSS | high polyreactivity |
| QVQLVESGGGLVQAGGSLRLSCAASGINFNYYAMGWYRQAPGKERELVAAISSTGSTYYSDSVKGRFTISRDNAKNTVYLQMNSLKPEDTAVYYCAAEWWDTGFANYGYDYWGQGTQVTVSS | high polyreactivity |
| QVQLEESGGGLVQAGCSLRLSCAASGSTFVRYAMGWYRQAPGKERELVAAISWSGASTYYADSVKGRFTISRDNAKNTVYLQMNSLKPEDTAVYYCAARSRWYDAAGYQKYYYWGQGSQVTVSS | high polyreactivity |

---

Assay: yeast display, Sf9 membrane polyspecificity reagent, FACS + sequencing; frameworks hold sequencing errors
quantity: polyreactivity (PSR sort gate)

Previously resolved entries follow.
| seqString | reportedValue |
| --- | --- |
| QVQLVESGGGLVQAGGSLSLICAASGSIFYEYAMGWYRQAPGKEREFVAAISSSGGSTYYADSVKGRFTISRDNAKNTVYLQMNSLKPEYTAVYYCNAQVGGVSIEYDYWGQGTQVTVSS | low polyreactivity |
| QVQLVESGGGLVQAGGSLRLSCAASGRTFDTNARGWYRQAPGKERELVAVITARGGNTSYADSVKGRFTISRDNAKNTVYLQMNSLKPEDTAVYYCAARVYRAPWTYEEGNYWGQGTQVTVSS | low polyreactivity |
| QVQLVESGGGLVQAGGSLRLSSAASGSTLTFNAMGWYRQAPGKERELVAAISWSDTDTYYADSVKGRFTISRDNAKNTVYLQMNSLKPEDTAVYYCAATVSAYEMDYWGQGTQVTVSS | low polyreactivity |
| QVQLVESGGGLVQAGGSLRLSCAASGRTFRAYAMGWYRQAPGKERELVAGITSGGSTNYADSVKGRFTISRDNAKNTVYLQMNSLKPEDTAVYYCAARRGTYRYRYDYWGQGTQVTVSS | high polyreactivity |

Recorded polyreactivity (PSR sort gate) for QVQLEESGGGLVQAGGSLRLSCAASGSIFFEYAMGWYRQAAGKERELVASINRGGGSTYYADSVKGRYTISRDNAKKNVYLQMNSLKPEDTAVYYCAAQWKYRQSYLDYYWGQGTQVTVSS , please?
low polyreactivity

Endpoint output: polyreactivity (PSR sort gate) of QVQLVESGGGLVQAGGSLRLSCAASGIIFHYYAMGWYRQAPGKERELVAAISGSGGSTYYADSVKGRFTISRDNAKNTVYLQMNSLKPEDTAVYYCAAKLWGGGGYWGQGTQVTVSS . Value?
high polyreactivity

Name the reported polyreactivity (PSR sort gate) value associated with the sequence QVQLVESGGRLVQAGGSLRLSCAASGRTFWFNDMGWYRQAPGKVRQLVAAISDTDGSTYYADSVKGRFTISRDNAKNSVYLQMNSLKPVDTAVYYCAPEAYYGYLYAYDYWGQGTQVTVSS
low polyreactivity

I have this sequence here, QVQLVESGGGLVQAGGIHRLSCPASGIIFYYYAMGWYRHAPGKESELVAAISWSGGSTYYADSVKGRFTISRDNAKYTVYLQMNSLKPEDTAVYYCAAAFSPGWWSRHTYDYDYWVQGTQVTVSS , and I need its recorded polyreactivity (PSR sort gate).
high polyreactivity

Consider the sequence shown here: QVQLVESGGGLVQAGGSLRLSCAASGSTFDKYAMGWYRQAPGKDRELVAAITWGGGSTYYADSVKGRFTISRDNAKNTVYLQMNSLKPEDTAVYYCAAEQGSSVLYDSWGQGTQVTVSS What is its recorded polyreactivity (PSR sort gate)?
low polyreactivity

Any idea what its polyreactivity (PSR sort gate) is? The sequence is QVQLVESGGGLVQAGGSLRLSCAASGFTVYGYTMGWYREAPGKERELVAAITSGDSTYYADSVKGRVTISRDIAQNTDYLQMHTLKPEETAVYYCATDWDVEYAWTEYYYWGQGTQVTVSS
high polyreactivity

Returns the measured polyreactivity (PSR sort gate) for the input sequence. Input: QVQLVESGGGLVQAGGSLRLSCAASGFIFNNYAMGWSRQAPGKERELVAAITWSGGGTYYADSVKGRFTISRDNAKNTVYLQMNSLKPEDSAVYYCAVYYPAYLEEYWGQGTQVTVSS
high polyreactivity
